- Tested on: Cavia porcellus
- Assay comment: Cardiotoxicity in iv dosed Dunkin-Hartley guinea pig assessed as drug level required to evoke 50 ms QTc prolongation administered as 3 fold cumulative doses measured every 10 seconds at end of every 20 mins follow up period of individual dose by ECG

Compound | System name | pEC50
COc1ccc(CCN2CCC(Nc3nc4ccccc4n3Cc3ccc(F)cc3)CC2)cc1 | Cavia porcellus | 3.74
CCCN(CCC)C1CCc2cccc(O)c2C1 (centres undefined) | Cavia porcellus | 2.95
COc1cc(N)c(Cl)cc1C(=O)NC1CCN(CCCOc2ccc(F)cc2)CC1OC (centres undefined) [CISAPRIDE] | Cavia porcellus | 3
CCCCNc1ccc(C(=O)OCCN(C)C)cc1 | Cavia porcellus | 2.62
O=C(CCCN1CCC(O)(c2cccc(C(F)(F)F)c2)CC1)c1ccc(F)cc1 | Cavia porcellus | 2.51
O=C(CCCN1CCC(O)(c2ccc(Cl)cc2)CC1)c1ccc(F)cc1 | Cavia porcellus | 3.48
CC(C)NCC(O)c1ccc(NS(C)(=O)=O)cc1 (centres undefined) | Cavia porcellus | 2.77
Cc1nc2sccn2c(=O)c1CCN1CCC(=C(c2ccc(F)cc2)c2ccc(F)cc2)CC1 | Cavia porcellus | 4.05
C=C[C@H]1C[N@@]2CC[C@H]1C[C@@H]2[C@@H](O)c1ccnc2ccc(OC)cc12 | Cavia porcellus | 2.55

* * *

- Tested on: Cavia porcellus
- Assay comment: Cardiotoxicity in Dunkin-Hartley guinea pig assessed as maximal QTc prolongation time at 10 mg/kg, iv administered as 3 fold cumulative doses measured every 10 seconds at end of every 20 mins follow up period of individual dose by ECG
- Format: toxicity, organism-based
- Set-up: dose 10 mg/kg, route intravenous
- Condition: in vivo
// not satisfied strictly below 90 ms in Emax; satisfied otherwise

Molecule | Class name
O=C(CCCN1CCC(O)(c2ccc(Cl)cc2)CC1)c1ccc(F)cc1 [HALOPERIDOL] | satisfied
O=C(CCCN1CCC2(CC1)C(=O)NCN2c1ccccc1)c1ccc(F)cc1 [SPIPERONE] | satisfied
CC(C)NCC(O)c1ccc(NS(C)(=O)=O)cc1 (centres undefined) [SOTALOL] | satisfied
CNCCC(Oc1ccccc1OC)c1ccccc1 (centres undefined) [NISOXETINE] | not satisfied
CCCN(CCC)C1CCc2cccc(O)c2C1 (centres undefined) [8-OH-DPAT] | satisfied
COc1cc(N)c(Cl)cc1C(=O)NC1CCN(CCCOc2ccc(F)cc2)CC1OC (centres undefined) [CISAPRIDE] | not satisfied
O=C(CCCN1CCC(O)(c2cccc(C(F)(F)F)c2)CC1)c1ccc(F)cc1 [TRIFLUPERIDOL] | not satisfied
C=C[C@H]1C[N@@]2CC[C@H]1C[C@@H]2[C@@H](O)c1ccnc2ccc(OC)cc12 [QUINIDINE] | not satisfied

* * *

- System name: Voltage-gated inwardly rectifying potassium channel KCNH2 (Homo sapiens)
- Sequence (Q12809 whole entry): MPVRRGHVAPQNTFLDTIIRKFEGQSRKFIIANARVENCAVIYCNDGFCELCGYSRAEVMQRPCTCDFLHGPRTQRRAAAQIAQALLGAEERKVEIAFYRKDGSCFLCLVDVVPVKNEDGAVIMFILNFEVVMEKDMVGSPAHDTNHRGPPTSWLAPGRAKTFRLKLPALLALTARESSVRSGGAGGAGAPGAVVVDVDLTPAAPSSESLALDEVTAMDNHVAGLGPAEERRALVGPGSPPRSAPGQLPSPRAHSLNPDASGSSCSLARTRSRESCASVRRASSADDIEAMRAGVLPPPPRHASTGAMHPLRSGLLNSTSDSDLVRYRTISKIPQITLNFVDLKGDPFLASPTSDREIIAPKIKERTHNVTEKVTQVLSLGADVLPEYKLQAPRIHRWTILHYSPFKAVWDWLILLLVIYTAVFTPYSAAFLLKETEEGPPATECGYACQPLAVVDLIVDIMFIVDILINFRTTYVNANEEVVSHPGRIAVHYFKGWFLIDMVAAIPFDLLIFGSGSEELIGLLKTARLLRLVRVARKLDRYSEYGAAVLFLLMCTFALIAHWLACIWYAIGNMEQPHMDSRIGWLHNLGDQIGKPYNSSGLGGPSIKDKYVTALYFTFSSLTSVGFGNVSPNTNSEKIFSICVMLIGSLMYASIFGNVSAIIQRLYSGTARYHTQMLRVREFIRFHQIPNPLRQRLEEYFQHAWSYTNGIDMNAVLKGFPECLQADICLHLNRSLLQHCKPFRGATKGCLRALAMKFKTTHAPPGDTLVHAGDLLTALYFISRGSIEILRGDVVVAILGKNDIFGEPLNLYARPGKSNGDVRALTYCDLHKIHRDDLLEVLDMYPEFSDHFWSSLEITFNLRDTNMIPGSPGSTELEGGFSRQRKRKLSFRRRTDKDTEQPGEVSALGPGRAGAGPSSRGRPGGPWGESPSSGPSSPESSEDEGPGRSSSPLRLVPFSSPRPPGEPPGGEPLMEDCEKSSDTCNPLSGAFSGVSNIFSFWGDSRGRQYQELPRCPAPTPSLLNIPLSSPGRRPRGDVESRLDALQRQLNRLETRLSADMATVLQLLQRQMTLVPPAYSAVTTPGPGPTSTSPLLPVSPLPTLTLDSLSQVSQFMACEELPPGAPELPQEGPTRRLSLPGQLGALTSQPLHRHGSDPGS
- Assay comment: Inhibition of human ERG channel in HEK293 cells by voltage-clamp method
pIC50: −log10 of the molar value.
Quick reference: pIC50 of the listed items.

Compound string | pIC50
CN1CCN(C2=Nc3ccccc3Nc3sc(CO)cc32)CC1 | 4.94
CN1CC(=O)N2[C@H](c3ccc4c(c3)OCO4)c3[nH]c4ccccc4c3C[C@@H]2C1=O | 4.00
Oc1ccc(CCN2CCC(Nc3nc4ccccc4n3Cc3ccc(F)cc3)CC2)cc1 | 9.00

* * *

- Tested on: Cavia porcellus
- Assay comment: Cardiotoxicity in iv dosed Dunkin-Hartley guinea pig assessed as drug level required to evoke 50 ms QTc prolongation administered as 3 fold cumulative doses measured every 10 seconds at end of every 20 mins follow up period of individual dose by ECG
Quick reference: log10 of EC50 of the listed items.
Measured property: log10 of EC50 (log10 of the value in µmol/kg)

Compound | log10 of EC50
CCCN(CCC)C1CCc2cccc(O)c2C1 (centres undefined) | 0.66
COc1ccc(CCN2CCC(Nc3nc4ccccc4n3Cc3ccc(F)cc3)CC2)cc1 | -0.41
CC(C)NCC(O)c1ccc(NS(C)(=O)=O)cc1 (centres undefined) | 0.79
C=C[C@H]1C[N@@]2CC[C@H]1C[C@@H]2[C@@H](O)c1ccnc2ccc(OC)cc12 | 0.92
O=C(CCCN1CCC(O)(c2ccc(Cl)cc2)CC1)c1ccc(F)cc1 | -0.06
O=C(CCCN1CCC(O)(c2cccc(C(F)(F)F)c2)CC1)c1ccc(F)cc1 | 0.88
Cc1nc2sccn2c(=O)c1CCN1CCC(=C(c2ccc(F)cc2)c2ccc(F)cc2)CC1 | -0.72
CCCCNc1ccc(C(=O)OCCN(C)C)cc1 | 0.96
COc1cc(N)c(Cl)cc1C(=O)NC1CCN(CCCOc2ccc(F)cc2)CC1OC (centres undefined) [CISAPRIDE] | 0.33
